- Test system: Bacillus cereus
- assay: Antibacterial activity against Bacillus cereus clinical isolate treated for 24 hrs followed by sub-cultivated for 72 hrs by micro dilution method
- Assay type: functional
Checkbox rule: MBC lower than 500 µM = yes; MBC not lower than 500 µM = no.

Some entries whose results are on file:
COc1cc(Cc2n[nH]c(=O)n2C(C)C)c(S(=O)(=O)N(C)C)cc1OC: no
CCCCNc1nnc(Cc2cc(OC)c(OC)cc2S(=O)(=O)N(C)C)o1: yes
COc1cc(Cc2n[nH]c(=S)n2C(C)(C)C)c(S(=O)(=O)N(C)C)cc1OC: yes

Problem: hey, is MBC for COc1cc(Cc2n[nH]c(=O)n2C(C)(C)C)c(S(=O)(=O)N(C)C)cc1OC lower than 500 µM or not?
Result: no

Problem: Field entry: CCn1c(Cc2cc(OC)c(OC)cc2S(=O)(=O)N(C)C)n[nH]c1=O
Result: no

Problem: Field entry: CN[C@@H]1[C@H](O[C@H]2[C@H](O[C@H]3[C@H](O)[C@@H](O)[C@H](N=C(N)N)[C@@H](O)[C@@H]3N=C(N)N)O[C@@H](C)[C@]2(O)C=O)O[C@@H](CO)[C@H](O)[C@H]1O
Result: yes

----------
- Test system: Staphylococcus aureus
- assay: Antibacterial activity against Staphylococcus aureus ATCC 6538 treated for 24 hrs followed by sub-cultivated for 72 hrs by micro dilution method
- Type: functional
Reported values of MBC for individual entries

# annotated cases, reported MBC shown
CCCNc1nnc(Cc2cc(OC)c(OC)cc2S(=O)(=O)N(C)C)o1: 260 µM
CCNc1nnc(Cc2cc(OC)c(OC)cc2S(=O)(=O)N(C)C)s1: 520 µM
CCCCNc1nnc(Cc2cc(OC)c(OC)cc2S(=O)(=O)N(C)C)o1: 380 µM
CNc1nnc(Cc2cc(OC)c(OC)cc2S(=O)(=O)N(C)C)s1: 540 µM
COc1cc(Cc2n[nH]c(=O)n2C(C)C)c(S(=O)(=O)N(C)C)cc1OC: 390 µM

Problem: Given the entry CCNc1nnc(Cc2cc(OC)c(OC)cc2S(=O)(=O)N(C)C)o1 , what MBC was observed with Staphylococcus aureus?
Result: 270 µM

Problem: Queued: CCn1c(Cc2cc(OC)c(OC)cc2S(=O)(=O)N(C)C)n[nH]c1=O
Result: 540 µM

Problem: Now the compound CCCCn1c(Cc2cc(OC)c(OC)cc2S(=O)(=O)N(C)C)n[nH]c1=S
Result: 480 µM

Problem: Quick one: CCn1c(Cc2cc(OC)c(OC)cc2S(=O)(=O)N(C)C)n[nH]c1=S
Result: 520 µM

Problem: Same thing, different compound: COc1cc(Cc2n[nH]c(=S)n2C(C)(C)C)c(S(=O)(=O)N(C)C)cc1OC
Result: 420 µM

----------
- Tested on: Staphylococcus aureus
- assay: Antibacterial activity against Staphylococcus aureus ATCC 6538 after 24 hrs by micro dilution method
- Format: functional
- condition.description: ATCC 6538, 24 h
A collection of compounds and their measured MIC
Numbers only here, please. The scale is µM.

Here's what some known entries look like.
CCCNc1nnc(Cc2cc(OC)c(OC)cc2S(=O)(=O)N(C)C)s1: 500
CC1(C)S[C@@H]2[C@H](NC(=O)[C@H](N)c3ccccc3)C(=O)N2[C@H]1C(=O)O [AMPICILLIN]: 250
CCNc1nnc(Cc2cc(OC)c(OC)cc2S(=O)(=O)N(C)C)o1: 140

Problem: Which measured MIC value corresponds to COc1cc(Cc2n[nH]c(=S)n2C(C)C)c(S(=O)(=O)N(C)C)cc1OC ?
Result: 380

Problem: COc1cc(Cc2n[nH]c(=S)n2C)c(S(=O)(=O)N(C)C)cc1OC ?
Result: 270

Problem: Similarly, CN[C@@H]1[C@H](O[C@H]2[C@H](O[C@H]3[C@H](O)[C@@H](O)[C@H](N=C(N)N)[C@@H](O)[C@@H]3N=C(N)N)O[C@@H](C)[C@]2(O)C=O)O[C@@H](CO)[C@H](O)[C@H]1O [STREPTOMYCIN] ?
Result: 40

Problem: Param item: COc1cc(Cc2n[nH]c(=O)n2C(C)C)c(S(=O)(=O)N(C)C)cc1OC
Result: 390

Problem: Follow-up item: CCNc1nnc(Cc2cc(OC)c(OC)cc2S(=O)(=O)N(C)C)s1
Result: 520
